Ref: patent US8592161B2

Below, each entry is listed alongside its reported EC50.
- System: HIV-1/LAI
- assay: In vitro antiviral activity in acutely infected MT4 cells, wild type
- Type: cell-based
- conditionSet: Human immunodeficiency virus 1, MT4, Table 5, wild-type HIV-1/LAI, read-out: median EC50
- Experimental: Determination of the antiviral activity of a compound was done as described in Pauwels R. et al. (J Virol Methods 1988; 20(4):309-21). Various concentrations of the test compounds were brought into each well of a flat-bottom microtiter plate. […] After 5 days of incubation (37° C., 5% CO2), the cytopathic effect of the replicating virus was determined by the tetrazolium colorimetric MTT method. […]
Express it in nM; write the number only.

- CC(C)c1nc(CN(C)C(=O)N[C@H](C(=O)N[C@@H](Cc2ccccc2)C[C@H](O)[C@H](Cc2ccccc2)NC(=O)OCc2cncs2)C(C)C)cs1 [Ritonavir]: 33

*Q* # get_value(readout='EC50', item= CC(C)(C)NC(=O)[C@@H]1CN(Cc2cccnc2)CCN1C[C@@H](O)C[C@@H](Cc1ccccc1)C(=O)N[C@H]1c2ccccc2C[C@H]1O [Indinavir] )
*A* 12

*Q* And Cc1cccc(C)c1OCC(=O)N[C@@H](Cc1ccccc1)[C@@H](O)C[C@H](Cc1ccccc1)NC(=O)[C@H](C(C)C)N1CCCNC1=O [Lopinavir] ?
*A* 4.6

*Q* What do you have for Cc1c(O)cccc1C(=O)N[C@@H](CSc1ccccc1)[C@H](O)CN1C[C@H]2CCCC[C@H]2C[C@H]1C(=O)NC(C)(C)C [Nelfinavir] ?
*A* 38

*Q* Queued: CC(C)(C)NC(=O)[C@@H]1C[C@@H]2CCCC[C@@H]2CN1C[C@@H](O)[C@H](Cc1ccccc1)NC(=O)[C@H](CC(N)=O)NC(=O)c1ccc2ccccc2n1 [Saquinavir]
*A* 5.6

*Q* Repeat for the following compound: CC(C)CN(C[C@@H](O)[C@H](Cc1ccccc1)NC(=O)O[C@H]1CCOC1)S(=O)(=O)c1ccc(N)cc1 [Amprenavir]
*A* 20
